Assay: In vitro photodynamic treatment, control CV-1 cells
Format: cell-based, monkey
Details: monkey, cv-1 kidney cells; CV1, 5 × 10^-8 M, dark; read-out: % Surviving Fraction, Dark
Text: Several selenopyrylium dyes and telluropyrylium dyes from Table I that generated singlet oxygen upon irradiation in air-saturated methanol were examined in vitro in mammalian cell cultures for their effectiveness as agents for photodynamic therapy. […] As controls, HSK1 (normal human skin fibroblasts) and CV-1 (normal monkey kidney cells) were used. […]
property_label: viability at 0.05 µM

Prompt line: Give its viability at 0.05 µM value. Item: CC(C)(C)C1=CC(=CC=Cc2cc(C(C)(C)C)[se+]c(C(C)(C)C)c2)C=C(C(C)(C)C)[Te]1.[Cl-] [Dye 1]
Response line: 100%

---

Experiment: In vitro photodynamic therapy, U251 cells
Format: cell-based, human
Conditions: human, u251 glioma cells; U251, 5 × 10^-8 M, dark; read-out: % Surviving Fraction, Dark
property_label: viability at 0.05 µM (%)
Your answer is read as %, so omit the unit and give the number.

Prompt line: Give its viability at 0.05 µM value. Item: CC(C)(C)C1=CC(=CC=Cc2cc(C(C)(C)C)[se+]c(C(C)(C)C)c2)C=C(C(C)(C)C)[Te]1.[Cl-]
Response line: 85

---

Experiment: Quantum efficiency of singlet oxygen generation in air-saturated solution
Assay type: physicochemical
Conditions: air-saturated solution
Task for the reader: assign each of the following molecules its reported Quantum efficiency of singlet oxygen generation Φ(1O2).
Respond numerically, and do not add a unit to the figure.

Prompt line: Give its Quantum efficiency of singlet oxygen generation Φ(1O2) value. Item: CC(C)(C)C1=CC(=Cc2cc(C(C)(C)C)[te+]c(C(C)(C)C)c2)C=C(C(C)(C)C)[Te]1 [Dye 12]
Response line: 0.07

Prompt line: Give its Quantum efficiency of singlet oxygen generation Φ(1O2) value. Item: CC(C)(C)C1=CC(=CC=Cc2cc(C(C)(C)C)[te+]c(C(C)(C)C)c2)C=C(C(C)(C)C)[Te]1 [Dye 4]
Response line: 0.13

---

Test: Quantum efficiency of singlet oxygen generation in air-saturated solution
Format: physicochemical
Settings: air-saturated solution
property_label: Quantum efficiency of singlet oxygen generation Φ(1O2)
Respond numerically, and do not add a unit to the figure.

Prompt line: Give its Quantum efficiency of singlet oxygen generation Φ(1O2) value. Item: CC(C)(C)C1=CC(=CC=Cc2cc(C(C)(C)C)[s+]c(C(C)(C)C)c2)C=C(C(C)(C)C)[Se]1
Response line: 0.008

Prompt line: Give its Quantum efficiency of singlet oxygen generation Φ(1O2) value. Item: CC(C)(C)C1=CC(=CC=Cc2cc(C(C)(C)C)[o+]c(C(C)(C)C)c2)C=C(C(C)(C)C)[Se]1
Response line: 0.005

Prompt line: Give its Quantum efficiency of singlet oxygen generation Φ(1O2) value. Item: CC(C=Cc1cc(C(C)(C)C)[te+]c(C(C)(C)C)c1)=C1C=C(C(C)(C)C)[Se]C(C(C)(C)C)=C1
Response line: 0.01

Prompt line: Give its Quantum efficiency of singlet oxygen generation Φ(1O2) value. Item: C(=C1C=C(c2ccccc2)[Te]C(c2ccccc2)=C1)c1cc(-c2ccccc2)[te+]c(-c2ccccc2)c1
Response line: 0.08

Prompt line: Give its Quantum efficiency of singlet oxygen generation Φ(1O2) value. Item: CC(C)(C)C1=CC(=CC=Cc2cc(C(C)(C)C)[o+]c(C(C)(C)C)c2)C=C(C(C)(C)C)[Te]1.[O-][Cl+3]([O-])([O-])[O-]
Response line: 0.06

Prompt line: Give its Quantum efficiency of singlet oxygen generation Φ(1O2) value. Item: CC(C)(C)C1=CC(=CC=Cc2cc(C(C)(C)C)[se+]c(C(C)(C)C)c2)C=C(C(C)(C)C)[Se]1
Response line: 0.014

Prompt line: Give its Quantum efficiency of singlet oxygen generation Φ(1O2) value. Item: CC(C)(C)C1=CC(=C(C#N)C=Cc2cc(C(C)(C)C)[te+]c(C(C)(C)C)c2)C=C(C(C)(C)C)[Te]1
Response line: 0.08

---

Task for the reader: assign each of the following molecules its reported viability at 0.1 µM.
Test: In vitro photodynamic treatment, control HSK1 cells
Format: cell-based, human
Conditions: human, hsk1 skin fibroblasts; HSK1, 1 × 10^-7 M, dark; read-out: % Surviving Fraction, Dark
Your answer is read as %, so omit the unit and give the number.

Prompt line: Give its viability at 0.1 µM value. Item: CC(C)(C)C1=CC(=Cc2cc(C(C)(C)C)[te+]c(C(C)(C)C)c2)C=C(C(C)(C)C)[Te]1 [Dye 12]
Response line: 100

Prompt line: Give its viability at 0.1 µM value. Item: CC(C)(C)C1=CC(=CC=Cc2cc(C(C)(C)C)[o+]c(C(C)(C)C)c2)C=C(C(C)(C)C)[Te]1.[O-][Cl+3]([O-])([O-])[O-] [Dye 5]
Response line: 99

---

Experiment: In vitro photodynamic therapy, B-16 cells
Type: cell-based, mouse
Settings: mouse, b-16 melanoma cells; B-16, 5 × 10^-8 M, dark; read-out: % Surviving Fraction, Dark
property_label: viability at 0.05 µM (%)
Your answer is read as %, so omit the unit and give the number.

Prompt line: Give its viability at 0.05 µM value. Item: CC(C)(C)C1=CC(=CC=Cc2cc(C(C)(C)C)[se+]c(C(C)(C)C)c2)C=C(C(C)(C)C)[Te]1.[Cl-] [Dye 1]
Response line: 99

---

Assay: Absorption maxima (λmax) of chalcogenopyrylium dyes
Format: physicochemical
Conditions: H2O
Task for the reader: assign each of the following compounds its reported Absorption maximum λmax.
Your answer is read as nm, so omit the unit and give the number.

Prompt line: Give its Absorption maximum λmax value. Item: CC(C)(C)C1=CC(=Cc2cc(C(C)(C)C)[te+]c(C(C)(C)C)c2)C=C(C(C)(C)C)[Te]1 [Dye 12]
Response line: 705

Prompt line: Give its Absorption maximum λmax value. Item: CC(C)(C)C1=CC(=CC=Cc2cc(C(C)(C)C)[se+]c(C(C)(C)C)c2)C=C(C(C)(C)C)[Se]1 [Dye 2]
Response line: 730

Prompt line: Give its Absorption maximum λmax value. Item: CC(=C1C=C(C(C)(C)C)[Te]C(C(C)(C)C)=C1)c1cc(C(C)(C)C)[te+]c(C(C)(C)C)c1 [Dye 13]
Response line: 790

Prompt line: Give its Absorption maximum λmax value. Item: CC(C)(C)C1=CC(=CC=Cc2cc(C(C)(C)C)[o+]c(C(C)(C)C)c2)C=C(C(C)(C)C)O1.[Cl-] [C.E. 3, reference compound]
Response line: 595

Prompt line: Give its Absorption maximum λmax value. Item: CC(C)(C)C1=CC(=CC=Cc2cc(C(C)(C)C)[o+]c(C(C)(C)C)c2)C=C(C(C)(C)C)[Se]1 [Dye 9]
Response line: 660

Prompt line: Give its Absorption maximum λmax value. Item: CC(C)(C)C1=CC(=CC=Cc2cc(C(C)(C)C)[s+]c(C(C)(C)C)c2)C=C(C(C)(C)C)[Te]1 [Dye 3]
Response line: 745

Prompt line: Give its Absorption maximum λmax value. Item: CC(C)(C)C1=CC(=CC=Cc2cc(C(C)(C)C)[o+]c(C(C)(C)C)c2)C=C(C(C)(C)C)[Te]1.[O-][Cl+3]([O-])([O-])[O-] [Dye 5]
Response line: 700

Prompt line: Give its Absorption maximum λmax value. Item: CC(C)(C)C1=CC(=CC=Cc2cc(C(C)(C)C)[o+]c(C(C)(C)C)c2)C=C(C(C)(C)C)S1.F[P-](F)(F)(F)(F)F [C.E. 2, reference compound]
Response line: 630

Prompt line: Give its Absorption maximum λmax value. Item: CC(C)(C)C1=CC(=CC=Cc2cc(C(C)(C)C)[s+]c(C(C)(C)C)c2)C=C(C(C)(C)C)[Se]1 [Dye 8]
Response line: 700

Prompt line: Give its Absorption maximum λmax value. Item: CC(C)(C)C1=CC(=CC=Cc2cc(C(C)(C)C)[s+]c(C(C)(C)C)c2)C=C(C(C)(C)C)S1.F[P-](F)(F)(F)(F)F [C.E. 1, reference compound]
Response line: 660

---

Assay: In vitro photodynamic therapy, FADU cells
Assay type: cell-based, human
Settings: human, fadu squamous cell carcinoma; FADU, 1 × 10^-6 M, dark; read-out: % Surviving Fraction, Dark
property_label: viability at 1 µM (%)
Your answer is read as %, so omit the unit and give the number.

Prompt line: Give its viability at 1 µM value. Item: CC(C)(C)C1=CC(=CC=Cc2cc(C(C)(C)C)[o+]c(C(C)(C)C)c2)C=C(C(C)(C)C)[Se]1
Response line: 99

Prompt line: Give its viability at 1 µM value. Item: CC(C)(C)C1=CC(=CC=Cc2cc(C(C)(C)C)[o+]c(C(C)(C)C)c2)C=C(C(C)(C)C)O1.[Cl-] [C.E. 3, reference compound]
Response line: 99

---

Experiment: Quantum efficiency of singlet oxygen generation in air-saturated solution
Format: physicochemical
Settings: air-saturated solution
Task for the reader: assign each of the following compounds its reported Quantum efficiency of singlet oxygen generation Φ(1O2).

Prompt line: Give its Quantum efficiency of singlet oxygen generation Φ(1O2) value. Item: CC(C)(C)C1=CC(=CC=Cc2cc(C(C)(C)C)[s+]c(C(C)(C)C)c2)C=C(C(C)(C)C)[Te]1 [Dye 3]
Response line: 0.07

Prompt line: Give its Quantum efficiency of singlet oxygen generation Φ(1O2) value. Item: CC(C)(C)C1=CC(=CC=Cc2cc(C(C)(C)C)[o+]c(C(C)(C)C)c2)C=C(C(C)(C)C)O1.[Cl-] [C.E. 3, reference compound]
Response line: ≤ 0.001

Prompt line: Give its Quantum efficiency of singlet oxygen generation Φ(1O2) value. Item: CC(=CC(C)=C1C=C(C(C)(C)C)[Se]C(C(C)(C)C)=C1)c1cc(C(C)(C)C)[se+]c(C(C)(C)C)c1 [Dye 7]
Response line: 0.005

Prompt line: Give its Quantum efficiency of singlet oxygen generation Φ(1O2) value. Item: CC(=C1C=C(c2ccccc2)[Te]C(c2ccccc2)=C1)c1cc(-c2ccccc2)[te+]c(-c2ccccc2)c1 [Dye 11]
Response line: 0.01

Prompt line: Give its Quantum efficiency of singlet oxygen generation Φ(1O2) value. Item: C(=CC=C1C=C(c2ccccc2)[Te]C(c2ccccc2)=C1)C=Cc1cc(-c2ccccc2)[te+]c(-c2ccccc2)c1 [Dye 16]
Response line: 0.005

Prompt line: Give its Quantum efficiency of singlet oxygen generation Φ(1O2) value. Item: CC(C)(C)C1=CC(=CC=Cc2cc(C(C)(C)C)[se+]c(C(C)(C)C)c2)C=C(C(C)(C)C)[Te]1.[Cl-] [Dye 1]
Response line: 0.09

Prompt line: Give its Quantum efficiency of singlet oxygen generation Φ(1O2) value. Item: CC(=C1C=C(C(C)(C)C)[Te]C(C(C)(C)C)=C1)c1cc(C(C)(C)C)[te+]c(C(C)(C)C)c1 [Dye 13]
Response line: 0.005
